// AUC of viability dose-response curve lookup, one value per entry
Test system: NOMO1
measurement.protocol: AUC of viability dose-response curve (% viability x log10 dose units); higher = less sensitive
experimental.context: RPMI 5 mM glucose + 10% FBS; 48 h
Field format: numeric only.

Below, each entry is followed by its recorded AUC of viability dose-response curve result.
{"columns": ["molecule", "AUC of viability dose-response curve"],
 "data": [
  ["COC(=O)N[C@H](C(=O)N[C@@H](Cc1ccccc1)[C@@H](O)CN(Cc1ccc(-c2ccccn2)cc1)NC(=O)[C@@H](NC(=O)OC)C(C)(C)C)C(C)(C)C", 470],
  ["COc1ccc2cc(-c3[nH]c(-c4ccc([S+](C)[O-])cc4)nc3-c3ccncc3)ccc2c1 (stereo unspecified)", 390],
  ["Nc1ccc([S+](=O)([O-])Nc2ccccn2)cc1", 467]
]}

In: Need AUC of viability dose-response curve of CCC1=C(C)CN(C(=O)NCCc2ccc(S(=O)(=O)NC(=O)N[C@H]3CC[C@H](C)CC3)cc2)C1=O , thanks.
Out: 439

In: Could you share which AUC of viability dose-response curve value was measured for CNC(=O)c1cc(Oc2ccc(NC(=O)Nc3cc(C(C)(C)C)nn3-c3ccc4ncccc4c3)c(F)c2)ccn1 ?
Out: 452

In: Returns the measured AUC of viability dose-response curve for the input molecule. Input: O=C(c1ccc(F)cc1)C1CCN(CCn2c(=O)[nH]c3ccccc3c2=O)CC1
Out: 457

In: Given C[C@H]1[C@@H](CC(C[C@H]2O[C@@H]3O[C@]4(C)CC[C@H]5[C@H](C)CC[C@@H]([C@H]2C)[C@@]35OO4)C[S+](=O)([O-])c2ccc(COC(=O)N(C)C)cc2)O[C@@H]2O[C@]3(C)CC[C@H]4[C@H](C)CC[C@@H]1[C@@]24OO3 , state its recorded AUC of viability dose-response curve.
Out: 329

In: Which AUC of viability dose-response curve is listed for CCOc1ccccc1OCCNC(C)Cc1ccc(OC)c([S+](N)(=O)[O-])c1 (stereo unspecified) ?
Out: 461

Source of measurements: the supplement of paper PMC11451515
